Documented INHIBITION across a set of compounds
tested on: Plasmodium berghei; assay: Screen against P. berghei liver stage (PbLuc), transformed with Luciferase, at 10uM; assay type: functional, HepG2; conditions: tested at 10 uM
Among all 69,000 compounds or so, about 8,600 (12%) showed an effect of 50% or more. The list comes from a sample in which strong results are over-represented; it also holds close analogues and randomly drawn compounds.
Kindly provide the numeric value in % only, without the unit symbol.

Study these solved cases before continuing.
Reported INHIBITION for "CCOC(=O)[C@]12CCCN(Cc3nccs3)C[C@H]1CN(C(C)C)C2" : what is it?
76.4

Would you kindly share the measured INHIBITION for "CCOC(=O)[C@]12CCCN(Cc3cccs3)C[C@H]1CN(C(C)=O)C2" ?
51.4

Which INHIBITION value belongs to Cc1cc(C)c(-n2cccn2)c(CN2CCOCC(CN(C)C)C2)c1 (stereo not drawn) ?
36.5

INHIBITION lookup needed for COc1ccc(-n2ncc3c2NC(=O)CSC3C(C)C)cc1 (stereo not drawn) , thanks.
5.51

Give its INHIBITION value. Item: O=C(CN1CCCC1)N1CCCC1c1nc(O)cc(-c2ccccn2)n1 (stereo not drawn)
-1.85

Next:
Item under review: CC(=O)Nc1nc(C(=O)N2CCCC2c2ccc(Br)cc2)cs1 (stereo not drawn) . Reported INHIBITION?
26.4

Endpoint output: INHIBITION of CC(C(N)=O)N1CCN(c2ncc(Br)cn2)CC1 (stereo not drawn) . Value?
21.8

# get_value(readout='INHIBITION', item= COC1CCN(C(=O)NCC(N)=O)CC(=O)N(C)c2ccccc21 (stereo not drawn) )
16.2

What does the record list as INHIBITION for Cc1cc(-n2cccn2)ccc1CN1CCOCC(CN(C)C)C1 (stereo not drawn) ?
62.2

Entry under review: "CCOC(=O)[C@]12CCCN(Cc3cccs3)C[C@H]1CN(C(C)C)C2" . Reported INHIBITION?
64.3

What value of measured INHIBITION is listed for "COc1ccc(-n2cnnc2SCC(=O)NC(C)C)cn1" ?
64.5

---

test system: Plasmodium berghei; assay: Screen against P. berghei liver stage (PbLuc), transformed with Luciferase, at 10uM; format: functional, HepG2; conditions: tested at 10 uM
In all, about 69,000 compounds went through this assay and about 8,600 (12%) showed an effect of 50% or more. The sample holds strong results, similar compounds and a random draw of the others, so the mix is not that of the screen.
# strict inequality: INHIBITION < 40% yields 1, everything else yields -1

See these solved cases before continuing.
Determine whether this molecule shows INHIBITION lower than 40% (ties excluded): "Nc1nc2c(c(NC(=O)Nc3ccccc3)n1)CCCC2"
1

A record lists "CCC(C)(CC)NC(=O)COc1nn(C)c2nc(C)cc(C)c12" . Is its INHIBITION below 40%?
-1

Please state whether INHIBITION is below 40% for "Cc1cccc2c1ccn2CC(=O)NC[C@@H]1CCCN2CCCC[C@H]12"
-1

Lab log: compare recorded INHIBITION with 40%; is it strictly lower for "COc1ccc(C)cc1C1(CNc2cncc(Cl)n2)CCOCC1" ?
1

Quick check: INHIBITION of "Cn1cc(CN2CCCC23CCN(C(=O)c2ccccc2)CC3)cn1" under 40%?
1

Kindly consider the entry below.
I'd appreciate it if you could check whether "CCOCc1nc(-c2cccc(OC)c2OC)n(C2CCN(C)CC2)n1" has INHIBITION smaller than 40%.
1
